Assay: Toxicokinetics of LUM001 free form, 13-week oral gavage toxicity study in rats
Format: in vivo
Details: male, CD IGS, rat, plasma, oral; Day 1; 30.0 mg/kg; M
quantity-kind: Cmax (ng/mL)
Quick note: give the figure in ng/mL, leave out the unit.

INPUT: Requested read-out: Cmax. Entry: `CCCCC1(CCCC)CS(=O)(=O)c2ccc(N(C)C)cc2[C@@H](c2ccc(OCc3ccc(C[N+]45CCN(CC4)CC5)cc3)cc2)[C@H]1O`
OUTPUT: 8.59

====

Test: Toxicokinetics of LUM001 free form, 13-week oral gavage toxicity study in rats
Format: in vivo
Details: both sexes, CD IGS, rat, plasma, oral; Day 1; 150 mg/kg; Comb
quantity-kind: Cmax (ng/mL)
Quick note: give the figure in ng/mL, leave out the unit.

INPUT: Requested read-out: Cmax. Entry: `CCCCC1(CCCC)CS(=O)(=O)c2ccc(N(C)C)cc2[C@@H](c2ccc(OCc3ccc(C[N+]45CCN(CC4)CC5)cc3)cc2)[C@H]1O`
OUTPUT: 37.3

====

Experiment: Toxicokinetics of LUM001 free form, 13-week oral gavage toxicity study in rats
Type: in vivo
Conditions: male, CD IGS, rat, plasma, oral, 75 mg/kg, Day 1; 75.0 mg/kg; M; read-out: AUC(0-24 h)
quantity-kind: AUC(0-t) (ng·h/mL)
Quick note: give the figure in ng·h/mL, leave out the unit.

INPUT: Requested read-out: AUC(0-t). Entry: `CCCCC1(CCCC)CS(=O)(=O)c2ccc(N(C)C)cc2[C@@H](c2ccc(OCc3ccc(C[N+]45CCN(CC4)CC5)cc3)cc2)[C@H]1O`
OUTPUT: 6.37

====

Assay: Toxicokinetics of LUM001 free form, 13-week oral capsule toxicity study in dogs
Format: in vivo, Beagle dogs
Conditions: male, Beagle, dog, plasma, oral, 20 mg/kg, Day 1; 20 mg/kg; M
quantity-kind: Cmax (ng/mL)
Quick note: give the figure in ng/mL, leave out the unit.

INPUT: Requested read-out: Cmax. Entry: `CCCCC1(CCCC)CS(=O)(=O)c2ccc(N(C)C)cc2[C@@H](c2ccc(OCc3ccc(C[N+]45CCN(CC4)CC5)cc3)cc2)[C@H]1O`
OUTPUT: 24.8

====

Assay: Pharmacokinetics of LUM001 after oral gavage in rats
Type: in vivo
Conditions: both sexes, Sprague Dawley, rat, plasma, 5 mg/kg, single oral gavage 5 mg/kg free form, fasted
quantity-kind: Cmax (ng/mL)
Quick note: give the figure in ng/mL, leave out the unit.

INPUT: Requested read-out: Cmax. Entry: CCCCC1(CCCC)CS(=O)(=O)c2ccc(N(C)C)cc2[C@@H](c2ccc(OCc3ccc(C[N+]45CCN(CC4)CC5)cc3)cc2)[C@H]1O [LUM001]
OUTPUT: 2.45

====

Assay: Toxicokinetics of LUM001 free form, 13-week oral gavage toxicity study in rats
Type: in vivo
Conditions: both sexes, Charles River CD IGS, rat, plasma, oral; Day 78; 150 mg/kg; Comb
quantity-kind: Tmax

INPUT: Requested read-out: Tmax. Entry: `CCCCC1(CCCC)CS(=O)(=O)c2ccc(N(C)C)cc2[C@@H](c2ccc(OCc3ccc(C[N+]45CCN(CC4)CC5)cc3)cc2)[C@H]1O`
OUTPUT: 1 h

====

Assay: Toxicokinetics of LUM001 free form, 13-week oral gavage toxicity study in rats
Type: in vivo
Conditions: both sexes, Charles River CD IGS, rat, plasma, oral; Day 78; 30.0 mg/kg; Comb
Procedure: Charles River CD IGS rats were assigned to treatment groups (9sex/toxicokinetic group) and were administered daily doses of 0, 5, 30, 75, and 150 mg/kg (males) or 0, 5, 30, 150, and 500 mg/kg (females). […] All animals were dosed with 10 mL/kg/day based on the most recently determined body weights. […] Plasma samples were stored at approximately −20° C. or lower until analyzed. The concentration of LUM001 free form in plasma were determined using an LCMSMS method. […]
quantity-kind: Tmax (h)
Quick note: give the figure in h, leave out the unit.

INPUT: Requested read-out: Tmax. Entry: `CCCCC1(CCCC)CS(=O)(=O)c2ccc(N(C)C)cc2[C@@H](c2ccc(OCc3ccc(C[N+]45CCN(CC4)CC5)cc3)cc2)[C@H]1O`
OUTPUT: 3

====

Assay: Toxicokinetics of LUM001 free form, 13-week oral capsule toxicity study in dogs
Format: in vivo, Beagle dogs
Conditions: female, Beagle, dog, plasma, oral, 5 mg/kg, Day 1; 5 mg/kg; F
Protocol: Six- to seven-month old Beagle dogs of body weights of 4.9-9.5 kg (4/sex/group) orally via capsules at 0, 5, 20 or 100 mg/kg for 13 consecutive weeks. Plasma levels of LUM001 (free form) were evaluated on Days 1 and 91. […] Plasma samples were stored at approximately −70° C. or lower until analyzed. The concentration of LUM001 free form in plasma were determined using an LCMSMS method. […]
quantity-kind: Cmax
For clarity, give the value followed by its unit.

INPUT: Requested read-out: Cmax. Entry: `CCCCC1(CCCC)CS(=O)(=O)c2ccc(N(C)C)cc2[C@@H](c2ccc(OCc3ccc(C[N+]45CCN(CC4)CC5)cc3)cc2)[C@H]1O`
OUTPUT: 9.34 ng/mL

====

Test: Toxicokinetics of LUM001 free form, 13-week oral gavage toxicity study in rats
Type: in vivo
Details: male, Charles River CD IGS, rat, plasma, oral; Day 78; 75.0 mg/kg; M
Procedure: Charles River CD IGS rats were assigned to treatment groups (9sex/toxicokinetic group) and were administered daily doses of 0, 5, 30, 75, and 150 mg/kg (males) or 0, 5, 30, 150, and 500 mg/kg (females). […] All animals were dosed with 10 mL/kg/day based on the most recently determined body weights. […] Plasma samples were stored at approximately −20° C. or lower until analyzed. The concentration of LUM001 free form in plasma were determined using an LCMSMS method. […]
quantity-kind: Cmax (ng/mL)
Quick note: give the figure in ng/mL, leave out the unit.

INPUT: Requested read-out: Cmax. Entry: CCCCC1(CCCC)CS(=O)(=O)c2ccc(N(C)C)cc2[C@@H](c2ccc(OCc3ccc(C[N+]45CCN(CC4)CC5)cc3)cc2)[C@H]1O [LUM001]
OUTPUT: 5.71

====

Test: Toxicokinetics of LUM001 free form, 13-week oral gavage toxicity study in rats
Format: in vivo
Conditions: female, Charles River CD IGS, rat, plasma, oral; Day 78; 500 mg/kg; F
quantity-kind: Cmax (ng/mL)
Quick note: give the figure in ng/mL, leave out the unit.

INPUT: Requested read-out: Cmax. Entry: `CCCCC1(CCCC)CS(=O)(=O)c2ccc(N(C)C)cc2[C@@H](c2ccc(OCc3ccc(C[N+]45CCN(CC4)CC5)cc3)cc2)[C@H]1O`
OUTPUT: 62.9

====

Assay: Toxicokinetics of LUM001 free form, 13-week oral capsule toxicity study in dogs
Type: in vivo, Beagle dogs
Details: female, Beagle, dog, plasma, oral, 100 mg/kg, Day 91; 100 mg/kg; F; read-out: AUC(0-24 h), mean
quantity-kind: AUC(0-t) (ng·h/mL)
Quick note: give the figure in ng·h/mL, leave out the unit.

INPUT: Requested read-out: AUC(0-t). Entry: `CCCCC1(CCCC)CS(=O)(=O)c2ccc(N(C)C)cc2[C@@H](c2ccc(OCc3ccc(C[N+]45CCN(CC4)CC5)cc3)cc2)[C@H]1O`
OUTPUT: 601

====

Experiment: Toxicokinetics of LUM001 free form, 13-week oral gavage toxicity study in rats
Type: in vivo
Details: male, Charles River CD IGS, rat, plasma, oral, 30 mg/kg, Day 78; 30.0 mg/kg; M; read-out: AUC(0-24 h)
quantity-kind: AUC(0-t) (ng·h/mL)
Quick note: give the figure in ng·h/mL, leave out the unit.

INPUT: Requested read-out: AUC(0-t). Entry: CCCCC1(CCCC)CS(=O)(=O)c2ccc(N(C)C)cc2[C@@H](c2ccc(OCc3ccc(C[N+]45CCN(CC4)CC5)cc3)cc2)[C@H]1O [LUM001]
OUTPUT: 11.4

====

Experiment: Toxicokinetics of LUM001 free form, 13-week oral capsule toxicity study in dogs
Type: in vivo, Beagle dogs
Details: male, Beagle, dog, plasma, oral, 20 mg/kg, Day 1; 20 mg/kg; M
quantity-kind: Tmax (h)
Quick note: give the figure in h, leave out the unit.

INPUT: Requested read-out: Tmax. Entry: `CCCCC1(CCCC)CS(=O)(=O)c2ccc(N(C)C)cc2[C@@H](c2ccc(OCc3ccc(C[N+]45CCN(CC4)CC5)cc3)cc2)[C@H]1O`
OUTPUT: 2.25

====

Experiment: Toxicokinetics of LUM001 free form, 13-week oral capsule toxicity study in dogs
Assay type: in vivo, Beagle dogs
Details: female, Beagle, dog, plasma, oral, 20 mg/kg, Day 1; 20 mg/kg; F
Method: Six- to seven-month old Beagle dogs of body weights of 4.9-9.5 kg (4/sex/group) orally via capsules at 0, 5, 20 or 100 mg/kg for 13 consecutive weeks. Plasma levels of LUM001 (free form) were evaluated on Days 1 and 91. […] Plasma samples were stored at approximately −70° C. or lower until analyzed. The concentration of LUM001 free form in plasma were determined using an LCMSMS method. […]
quantity-kind: Tmax (h)
Quick note: give the figure in h, leave out the unit.

INPUT: Requested read-out: Tmax. Entry: `CCCCC1(CCCC)CS(=O)(=O)c2ccc(N(C)C)cc2[C@@H](c2ccc(OCc3ccc(C[N+]45CCN(CC4)CC5)cc3)cc2)[C@H]1O`
OUTPUT: 2
